// data source = patent US6362208B1

system_tested: ACAT, vascular wall-derived enzyme (Oryctolagus cuniculus, UniProt G1SUQ0)
Sequence (G1SUQ0 entry or part of it): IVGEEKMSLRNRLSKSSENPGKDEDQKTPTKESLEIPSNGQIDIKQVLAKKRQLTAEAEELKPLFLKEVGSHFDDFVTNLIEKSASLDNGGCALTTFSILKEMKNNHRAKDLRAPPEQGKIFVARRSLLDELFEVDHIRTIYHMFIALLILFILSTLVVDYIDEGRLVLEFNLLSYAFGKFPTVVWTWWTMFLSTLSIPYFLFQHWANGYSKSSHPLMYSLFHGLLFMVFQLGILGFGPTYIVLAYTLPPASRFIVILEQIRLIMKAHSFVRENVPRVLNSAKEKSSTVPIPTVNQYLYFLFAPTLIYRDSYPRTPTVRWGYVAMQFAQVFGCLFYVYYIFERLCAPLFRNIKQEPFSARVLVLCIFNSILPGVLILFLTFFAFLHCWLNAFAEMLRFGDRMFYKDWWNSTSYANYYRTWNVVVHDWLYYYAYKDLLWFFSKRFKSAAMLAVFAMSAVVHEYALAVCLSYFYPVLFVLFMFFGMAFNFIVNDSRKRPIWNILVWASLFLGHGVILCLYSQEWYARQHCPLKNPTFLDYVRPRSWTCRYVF
measurement_protocol: ACAT inhibitory action, vascular wall-derived enzyme (microsome from thoracic aorta of cholesterol-fed rabbit)
Assay type: biochemical
run_parameters: 14C-Oleoyl-CoA, 37° C.
measured_quantity: IC50 (µM)
Numbers only; they are read as µM.

Query (compound): CCCCCCCN(CCCCCSc1nc(-c2ccccc2)c(-c2ccccc2)[nH]1)c1nc2ccccc2o1 [Control 4, reference compound] ; field requested: IC50
0.026

###

measured_quantity: melting point

// worked examples, melting point included
input_smiles	melting point
CC(C)c1cccc(C(C)C)c1NC(=O)CCCCCSc1nc2cccc(CO)c2o1	91 to 92 °C
CC(C)c1cccc(C(C)C)c1NC(=O)CCCCCSc1nc2ccc(CO)cc2o1	93 to 95 °C
CC(C)c1cccc(C(C)C)c1NC(=O)CCCCCCCCSc1nc2cccc(C(F)(F)F)c2o1	82 to 84 °C
CC(C)c1cccc(C(C)C)c1NC(=O)CCCCCSc1nc2cccc(CN3CCOCC3)c2o1	117 to 118 °C
COC(=O)c1cccc2nc(SCCCCCCCNC(=O)Nc3c(C(C)C)cccc3C(C)C)oc12	179 to 181 °C

Returns the measured melting point for the input molecule. Input: COC(=O)c1c(O)ccc2nc(SCCCCCC(=O)Nc3c(C(C)C)cccc3C(C)C)oc12
155 to 156 °C

Reported melting point for CC(C)c1cccc(C(C)C)c1NC(=O)CCCCCSc1nc2cccc(-c3cc[nH]n3)c2o1 : what is it?
174 to 176 °C

Give the measured melting point of CCOC(=O)c1cccc2nc(SCCCCCC(=O)Nc3c(C(C)C)cccc3C(C)C)oc12 .
114 to 116 °C

###

melting point values by entry

input_smiles	measured_result
CC(C)c1cccc(C(C)C)c1NC(=O)CCCCCSc1nc2cccc(C(=O)O)c2o1	175 to 177 °C
CC(C)c1cccc(C(C)C)c1NC(=O)CCCCCSc1nc2cc(N(C)C)ccc2o1	130 to 132 °C

Consider now this further compound.
Which melting point value is on record for COC(=O)c1cccc2nc(SCCCCCC(=O)Nc3c(C(C)C)cccc3C(C)C)oc12 ?
118 to 119 °C
